System: Cy5 5'-labelled RNA, nucleotides -20 to +20 of acpP (target mRNA)
Assay: Microscale thermophoresis (MST) binding affinity
Set-up: species or system Salmonella enterica; key: -: Effect strength is represented by additional (+) signs.; Effect strength is represented by additional (+) signs.; ++: Effect strength is represented by additional (+) signs.; +++: Effect strength is represented by additional (+) signs
Conditions: summary grade; unconjugated ASO
Oligonucleotides are written 5' to 3', each unit as a sugar letter and its base; * is a phosphorothioate linkage, no mark a phosphodiester; rarer units and linkages stand in square brackets, end groups in braces. Plain capitals give the bases only. d = 2'-deoxy (DNA)
REPORTED_METRIC: Binding affinity (in vitro)

1. LNA: 10mer 2'-4'-locked RNA antisense oligomer, sequence CTCATACTCT, targeting acpP (all LNA, backbone and methylation of C not given here) | +++
2. DNA-PTO: 10mer phosphorothioate-modified DNA antisense oligomer, sequence CTCATACTCT, targeting acpP (antisense dC*dT*dC*dA*dT*dA*dC*dT*dC*dT) | -
3. RNA-F: 10mer 2'-fluorinated RNA antisense oligomer, sequence CTCATACTCT, targeting acpP (all 2'-fluoro, backbone and T or U not given here) | +

----------
System: Salmonella
Test: RNA-seq, global transcriptome (PCA)
Type: cell-based, Salmonella enterica serovar Typhimurium strain SL1344
Details: 5 µM KFF-ASO conjugate or peptide, 15 min; two independent RNA-seq experiments
Description: RNA isolation was performed using previously published protocols ([30],[31]). Bacterial overnight cultures were diluted 1:100 in fresh MHB and grown to OD600 0.5. The cultures were diluted to approximately 10^6 cfu/ml in non-cation-adjusted MHB. […] Total RNA was purified from bacterial pellets using the miRNeasy Mini kit (Qiagen) according to protocol #3 described in ([30]). […] RNA concentration was measured with a NanoDrop spectrophotometer. […]
REPORTED_METRIC: PCA cluster of the transcriptomic response

1. PNA: 10mer peptide nucleic acid antisense oligomer, sequence CTCATACTCT, targeting acpP (all peptide nucleic acid (PNA)) | cluster 1
2. RNA-OMe: 10mer 2'-methylated RNA antisense oligomer, sequence CTCATACTCT, targeting acpP (all 2'-O-methyl, backbone and T or U not given here) | cluster 1
3. RNA-MOE: 10mer 2'-methoxyethylated RNA antisense oligomer, sequence CTCATACTCT, targeting acpP (all 2'-MOE, backbone and methylation of C not given here) | cluster 1

----------
Tested on: acpP mRNA
Assay: RNA-seq, target mRNA depletion
Type: cell-based, Salmonella enterica serovar Typhimurium strain SL1344
Parameters: key: -: Effect strength is represented by additional (+) signs.; Effect strength is represented by additional (+) signs.; ++: Effect strength is represented by additional (+) signs.; +++: Effect strength is represented by additional (+) signs
Conditions: summary grade; ASO conjugated to the carrier peptide
Protocol: RNA isolation was performed using previously published protocols ([30],[31]). Bacterial overnight cultures were diluted 1:100 in fresh MHB and grown to OD600 0.5. The cultures were diluted to approximately 10^6 cfu/ml in non-cation-adjusted MHB. […] Total RNA was purified from bacterial pellets using the miRNeasy Mini kit (Qiagen) according to protocol #3 described in ([30]). […] RNA concentration was measured with a NanoDrop spectrophotometer. […]
Oligonucleotides are written 5' to 3', each unit as a sugar letter and its base; * is a phosphorothioate linkage, no mark a phosphodiester; rarer units and linkages stand in square brackets, end groups in braces. Plain capitals give the bases only. d = 2'-deoxy (DNA)
REPORTED_METRIC: acpP depletion (RNA-seq)

1) RNA-MOE: 10mer 2'-methoxyethylated RNA antisense oligomer, sequence CTCATACTCT, targeting acpP (all 2'-MOE, backbone and methylation of C not given here) | -
2) LNA: 10mer 2'-4'-locked RNA antisense oligomer, sequence CTCATACTCT, targeting acpP (all LNA, backbone and methylation of C not given here) | -
3) RNA-OMe: 10mer 2'-methylated RNA antisense oligomer, sequence CTCATACTCT, targeting acpP (all 2'-O-methyl, backbone and T or U not given here) | -
4) RNA-F: 10mer 2'-fluorinated RNA antisense oligomer, sequence CTCATACTCT, targeting acpP (all 2'-fluoro, backbone and T or U not given here) | -
5) DNA-PTO: 10mer phosphorothioate-modified DNA antisense oligomer, sequence CTCATACTCT, targeting acpP (antisense dC*dT*dC*dA*dT*dA*dC*dT*dC*dT) | -

----------
Entries and their measured GFP Expression (%) follow.
Test system: acpP::gfp reporter transcript
Experiment: In vitro translation (PURExpress) and anti-GFP western blot
Format: biochemical, Salmonella enterica
Conditions: acpP-RNA : ASO 1 : 2.5; unconjugated ASO; RNA 100 nM, 2 h 37 °C; relative to water control
REPORTED_METRIC: GFP Expression (%)

1) PMO: 10mer phosphorodiamidate morpholino antisense oligomer, sequence CTCATACTCT, targeting acpP (all phosphorodiamidate morpholino (PMO)) | 92.7
2) RNA-MOE: 10mer 2'-methoxyethylated RNA antisense oligomer, sequence CTCATACTCT, targeting acpP (all 2'-MOE, backbone and methylation of C not given here) | 5.1
3) RNA-F: 10mer 2'-fluorinated RNA antisense oligomer, sequence CTCATACTCT, targeting acpP (all 2'-fluoro, backbone and T or U not given here) | 85.0

----------
Tested on: acpP::gfp reporter transcript
Assay: In vitro translation (PURExpress) and anti-GFP western blot
Format: biochemical, Salmonella enterica
Conditions: acpP-RNA : ASO 1 : 5; unconjugated ASO; RNA 100 nM, 2 h 37 °C; relative to water control
Oligonucleotides are written 5' to 3', each unit as a sugar letter and its base; * is a phosphorothioate linkage, no mark a phosphodiester; rarer units and linkages stand in square brackets, end groups in braces. Plain capitals give the bases only. d = 2'-deoxy (DNA)
Entries and their measured GFP Expression (%) follow.
REPORTED_METRIC: GFP Expression (%)

1) DNA-PTO: 10mer phosphorothioate-modified DNA antisense oligomer, sequence CTCATACTCT, targeting acpP (antisense dC*dT*dC*dA*dT*dA*dC*dT*dC*dT) | 96.5
2) RNA-MOE: 10mer 2'-methoxyethylated RNA antisense oligomer, sequence CTCATACTCT, targeting acpP (all 2'-MOE, backbone and methylation of C not given here) | 3.3
3) PNA: 10mer peptide nucleic acid antisense oligomer, sequence CTCATACTCT, targeting acpP (all peptide nucleic acid (PNA)) | 5.7
4) PMO: 10mer phosphorodiamidate morpholino antisense oligomer, sequence CTCATACTCT, targeting acpP (all phosphorodiamidate morpholino (PMO)) | 60.4
5) RNA-F: 10mer 2'-fluorinated RNA antisense oligomer, sequence CTCATACTCT, targeting acpP (all 2'-fluoro, backbone and T or U not given here) | 69.5

----------
Entries and their measured GFP Expression (%) follow.
System: acpP::gfp reporter transcript
Experiment: In vitro translation (PURExpress) and anti-GFP western blot
Type: biochemical, Salmonella enterica
Conditions: acpP-RNA : ASO 1 : 10; unconjugated ASO; RNA 100 nM, 2 h 37 °C; relative to water control
Oligonucleotides are written 5' to 3', each unit as a sugar letter and its base; * is a phosphorothioate linkage, no mark a phosphodiester; rarer units and linkages stand in square brackets, end groups in braces. Plain capitals give the bases only. d = 2'-deoxy (DNA)
REPORTED_METRIC: GFP Expression (%)

1) PMO: 10mer phosphorodiamidate morpholino antisense oligomer, sequence CTCATACTCT, targeting acpP (all phosphorodiamidate morpholino (PMO)) | 28.3
2) RNA-OMe: 10mer 2'-methylated RNA antisense oligomer, sequence CTCATACTCT, targeting acpP (all 2'-O-methyl, backbone and T or U not given here) | 83.7
3) PNA: 10mer peptide nucleic acid antisense oligomer, sequence CTCATACTCT, targeting acpP (all peptide nucleic acid (PNA)) | 5.5
4) DNA-PTO: 10mer phosphorothioate-modified DNA antisense oligomer, sequence CTCATACTCT, targeting acpP (antisense dC*dT*dC*dA*dT*dA*dC*dT*dC*dT) | 96.3
